A collection of compounds and their measured MIC
System: Staphylococcus aureus
MEASUREMENT_PROTOCOL: Antibacterial activity against Staphylococcus aureus ATCC 25923 after 16 to 18 hrs by serial plate dilution method
Assay type: functional

N#Cc1cccc(C(=O)OCc2csc(N)n2)n1 25 µg/mL

Request: Item `Nc1nc(COC(=O)c2c(F)cc(F)cc2F)cs1` with Staphylococcus aureus - MIC?
Result: 25 µg/mL

Request: Item `Nc1nc(COC(=O)c2c(Cl)cc(Cl)cc2Cl)cs1` with Staphylococcus aureus - MIC?
Result: 6.25 µg/mL

* * *

Test system: Mycolicibacterium fortuitum
MEASUREMENT_PROTOCOL: Antitubercular activity against Mycobacterium fortuitum ATCC 19542 after 7 days by resazurin assay
Assay type: functional
DETAILS: ATCC 19542, 168 h
A collection of molecules and their measured MIC
Give just the numeric value; mg/L need not be written.

Example entries and their recorded answers appear below.
Nc1nc(COC(=O)C2(c3ccc(Cl)cc3)CC2)cs1 1.25
Nc1nc(COC(=O)c2ccccc2[N+](=O)[O-])cs1 10
Nc1nc(COC(=O)c2c(F)cccc2Cl)cs1 10
Nc1nc(COC(=O)c2cccc([N+](=O)[O-])c2Cl)cs1 10

Request: Name the recorded MIC for `NNC(=O)c1ccncc1` .
Result: 12.5

Request: Name the recorded MIC for `Nc1nc(COC(=O)Cc2cccc(C(F)(F)F)c2)cs1` .
Result: 10

Request: Name the recorded MIC for `Nc1nc(COC(=O)c2ccc([N+](=O)[O-])cc2)cs1` .
Result: 10

Request: Name the recorded MIC for `Nc1nc(COC(=O)c2cc(F)cc(C(F)(F)F)c2)cs1` .
Result: 10

Request: Name the recorded MIC for `Nc1nc(COC(=O)c2ccc3ccccc3c2)cs1` .
Result: 10

Request: Name the recorded MIC for `CO[C@H]1/C=C/O[C@@]2(C)Oc3c(C)c(O)c4c(O)c(c(/C=N/N5CCN(C)CC5)c(O)c4c3C2=O)NC(=O)/C(C)=C\C=C\[C@H](C)[C@H](O)[C@@H](C)[C@@H](O)[C@@H](C)[C@H](OC(C)=O)[C@@H]1C` .
Result: 1.5

Request: Name the recorded MIC for `Nc1nc(COC(=O)c2cccs2)cs1` .
Result: 10

Request: Name the recorded MIC for `N#CCCc1cccc(C(=O)OCc2csc(N)n2)c1` .
Result: 10

* * *

Tested on: Staphylococcus aureus
MEASUREMENT_PROTOCOL: Antibacterial activity against Staphylococcus aureus ATCC 25923 at […] after 3 to 4 days
Format: functional
OBSERVATION_TYPE: diameter of the inhibition zone (DIZ) (mm)
Give just the numeric value; mm need not be written.

Example entries and their recorded answers appear below.
Nc1nc(COC(=O)c2ccc3ccccc3c2)cs1 16
Nc1nc(COC(=O)c2cccc([N+](=O)[O-])c2Cl)cs1 11
N#CCCc1cccc(C(=O)OCc2csc(N)n2)c1 16

Request: Name the recorded diameter of the inhibition zone (DIZ) for `Nc1nc(COC(=O)c2ccccc2)cs1` .
Result: 16

Request: Name the recorded diameter of the inhibition zone (DIZ) for `N#Cc1ccc(C(=O)OCc2csc(N)n2)cn1` .
Result: 16

* * *

Tested on: Escherichia coli
MEASUREMENT_PROTOCOL: Antibacterial activity against Escherichia coli ATCC 25922 at MIC after 3 to 4 days
Type: functional
OBSERVATION_TYPE: diameter of the inhibition zone (DIZ) (mm)
Give just the numeric value; mm need not be written.

Example entries and their recorded answers appear below.
Nc1nc(COC(=O)c2cccs2)cs1 16
Nc1nc(COC(=O)c2ccc(Cl)cc2)cs1 16
Nc1nc(COC(=O)c2ccc([N+](=O)[O-])cc2)cs1 11
O=C(O)c1cn(C2CC2)c2cc(N3CCNCC3)c(F)cc2c1=O 30

Request: Item `N#Cc1ccccc1C(=O)OCc1csc(N)n1` with Escherichia coli - diameter of the inhibition zone (DIZ)?
Result: 16

Request: Item `Nc1nc(COC(=O)c2cccc([N+](=O)[O-])c2Cl)cs1` with Escherichia coli - diameter of the inhibition zone (DIZ)?
Result: 11

* * *

Test system: Talaromyces marneffei
MEASUREMENT_PROTOCOL: Antifungal activity against Penicillium marneffei at MIC after 3 to 4 days
Type: functional
OBSERVATION_TYPE: diameter of the inhibition zone (DIZ)

Example entries and their recorded answers appear below.
Nc1nc(COC(=O)c2ccc3ccccc3c2)cs1 11 mm
Cc1cc(C2CCCCC2)n(O)c(=O)c1.NCCO 20 mm
N#Cc1ccccc1C(=O)OCc1csc(N)n1 <10 mm
Nc1nc(COC(=O)c2c(F)cc(F)cc2F)cs1 16 mm
Nc1nc(COC(=O)c2ccc(Cl)cc2)cs1 <10 mm

Moving on to the next compound.
Request: Name the recorded diameter of the inhibition zone (DIZ) for `N#Cc1cccc(C(=O)OCc2csc(N)n2)n1` .
Result: 16 mm

* * *

Tested on: Klebsiella pneumoniae
MEASUREMENT_PROTOCOL: Antibacterial activity against Klebsiella pneumoniae at MIC after 3 to 4 days
Assay type: functional
OBSERVATION_TYPE: diameter of the inhibition zone (DIZ)

Request: Name the recorded diameter of the inhibition zone (DIZ) for `N#Cc1cccc(C(=O)OCc2csc(N)n2)n1` .
Result: <10 mm

Request: Name the recorded diameter of the inhibition zone (DIZ) for `Nc1nc(COC(=O)c2cccs2)cs1` .
Result: <10 mm

Request: Name the recorded diameter of the inhibition zone (DIZ) for `Nc1nc(COC(=O)Cc2ccccc2OC(F)(F)F)cs1` .
Result: <10 mm

Request: Name the recorded diameter of the inhibition zone (DIZ) for `Nc1nc(COC(=O)c2cc(F)cc(C(F)(F)F)c2)cs1` .
Result: <10 mm

* * *

A collection of molecules and their measured MIC
System: Staphylococcus aureus
MEASUREMENT_PROTOCOL: Antibacterial activity against Staphylococcus aureus ATCC 25923 after 16 to 18 hrs by serial plate dilution method
Assay type: functional
Give just the numeric value; µg/mL need not be written.

Nc1nc(COC(=O)c2ccc3ccccc3c2)cs1 6.25
Nc1nc(COC(=O)c2ccco2)cs1 6.25
Nc1nc(COC(=O)Cc2cccc(C(F)(F)F)c2)cs1 6.25
N#Cc1ccc(C(=O)OCc2csc(N)n2)cn1 6.25
Nc1nc(COC(=O)c2cccc([N+](=O)[O-])c2Cl)cs1 12.5

Request: Name the recorded MIC for `Nc1nc(COC(=O)c2ccc([N+](=O)[O-])cc2)cs1` .
Result: 25

Request: Name the recorded MIC for `Nc1nc(COC(=O)c2cccs2)cs1` .
Result: 12.5

Request: Name the recorded MIC for `N#CCCc1cccc(C(=O)OCc2csc(N)n2)c1` .
Result: 6.25

Request: Name the recorded MIC for `Nc1nc(COC(=O)Cc2ccccc2OC(F)(F)F)cs1` .
Result: 12.5

Request: Name the recorded MIC for `N#Cc1ccccc1C(=O)OCc1csc(N)n1` .
Result: 12.5

* * *

Tested on: Escherichia coli
MEASUREMENT_PROTOCOL: Antibacterial activity against Escherichia coli ATCC 25922 at MIC after 3 to 4 days
Format: functional
A collection of compounds and their measured diameter of the inhibition zone (DIZ)

Example entries and their recorded answers appear below.
Nc1nc(COC(=O)C2(c3ccc(Cl)cc3)CC2)cs1 16 mm
Nc1nc(COC(=O)c2cc(F)cc(C(F)(F)F)c2)cs1 <10 mm
Nc1nc(COC(=O)c2ccco2)cs1 16 mm

Request: Name the recorded diameter of the inhibition zone (DIZ) for `Nc1nc(COC(=O)c2ccc3ccccc3c2)cs1` .
Result: 16 mm

Request: Name the recorded diameter of the inhibition zone (DIZ) for `Nc1nc(COC(=O)c2c(F)cccc2Cl)cs1` .
Result: <10 mm

Request: Name the recorded diameter of the inhibition zone (DIZ) for `Nc1nc(COC(=O)c2c(Cl)cc(Cl)cc2Cl)cs1` .
Result: <10 mm

* * *

A collection of molecules and their measured diameter of the inhibition zone (DIZ)
Tested on: Talaromyces marneffei
MEASUREMENT_PROTOCOL: Antifungal activity against Penicillium marneffei at MIC after 3 to 4 days
Type: functional
Give just the numeric value; mm need not be written.

Example entries and their recorded answers appear below.
N#CCCc1cccc(C(=O)OCc2csc(N)n2)c1 16
Nc1nc(COC(=O)c2cc(F)cc(C(F)(F)F)c2)cs1 16
Nc1nc(COC(=O)c2cccc([N+](=O)[O-])c2Cl)cs1 11
Nc1nc(COC(=O)Cc2ccccc2OC(F)(F)F)cs1 16
Nc1nc(COC(=O)c2ccco2)cs1 16

Request: Name the recorded diameter of the inhibition zone (DIZ) for `Nc1nc(COC(=O)c2ccccc2[N+](=O)[O-])cs1` .
Result: 11

Request: Name the recorded diameter of the inhibition zone (DIZ) for `Nc1nc(COC(=O)c2c(Cl)cc(Cl)cc2Cl)cs1` .
Result: 16

Request: Name the recorded diameter of the inhibition zone (DIZ) for `Nc1nc(COC(=O)c2ccc([N+](=O)[O-])cc2)cs1` .
Result: 16
